test system: Enterococcus faecalis; test: Antimicrobial activity against Enterococcus faecalis ATCC 29212 assessed as inhibition of visible growth measured after 16 to 20 hrs by broth microdilution method; format: functional, organism-based
Activity calls are given as the source filed them. The rule behind the calls is not given here.
Experimental Readout: Activity

CC[C@H](C)[C@@H]1NC(=O)[C@@H](CC(C)C)NC(=O)[C@@H](C(C)C)NC(=O)[C@H](C(C)C)NC(=O)[C@@H](C(C)C)NC(=O)[C@H](Cc2ccc(O)cc2)NC1=O: inactive
CC[C@H](C)[C@H](NC(=O)[C@@H](CC(C)C)NC(=O)[C@H](NC(=O)[C@@H](NC(=O)[C@H](N)C(C)C)C(C)C)C(C)C)C(=O)N[C@@H](Cc1ccc(O)cc1)C(=O)O: inactive
CC(C)C[C@@H](NC(=O)[C@H](NC(=O)[C@@H](NC(=O)[C@H](N)C(C)C)C(C)C)C(C)C)C(=O)N[C@H](C(=O)N[C@@H](Cc1ccc(O)cc1)C(=O)O)C(C)C: inactive
CC(C)C[C@H]1NC(=O)[C@@H](C(C)C)NC(=O)[C@H](C(C)C)NC(=O)[C@@H](C(C)C)NC(=O)[C@H](Cc2ccc(O)cc2)NC(=O)[C@H](C(C)C)NC1=O: inactive
